# experimental_system: T1, RSV-F.mmh (Respiratory Syncytial Virus)
# T1 construct: also called recombinant RSV-F; soluble monomeric RSV-F
# protocol: SPR (Biacore), mAb captured via Fc, soluble RSV-F.mmh injected, 25 C
Reported kon values for a set of binders
Hi! Could you send only the number? It should be in M⁻¹ s⁻¹, unit omitted.

Reference set, count: 2
1) H1H3592P2 (antibody, V domains shown) VH: EVQLVESGGDLVQPGRSLRLSCVASGFTFDDYAMHWVRQAPGKGLEWVSGVSWSGSTVGYADSVKGRFTVSRDNAQKSLYLQMNSLRAEDTALYYCVKDAYKYNYYYYGLDVWGQGTTVTVSS VL: EIVMTQSPATLSVSPGERATLSCRASQTILSNLAWYLQKPGQAPRLLIYGASTRATGLPARFSGSGSGTEFTLTISSLQSEDFAVYYCQQYNNWPLTFGGGTKVEIK : 99300
2) H1H3591P (antibody, V domains shown) VH: EVQLVESGGGLVQPGRSLRLSCAASGFTFDDYAMHWVRQTPGKGLEWISGISWSSGTIVYADSVKGRFTISRDNAKNSLYLQMNSLRGEDTALYHCAKDGYRWKSYSYGLDVWGQGTTVTVSS VL: EIVMTQSPATLSLSPGERATLSCRPSQSVINNLAWYQQKPGQAPRLLIFGASSRATGIPARFSGSGSGTEFTLTISSLQSEDFALYYCQQYNNWPLTFGGGTKVEIK : 44600

Switching to the query record.
Value of kon reported for the binder H1H3564P (antibody, V domains shown) VH: QVQLVQSGAEVKKPGSSVKVSCKASGGTLSNNAFSWVRQAPGQGLEWLGGFNPIFDTANYAQKFQGRITITLDASTGTVYMELSSLRSEDTGVYYCAGTGAHFEFWGQGTLVTVSS VL: DIQMTQSPSSLSASVGDRVTITCRTSQSISTYLNWYQQKPGKAPKFLIYAASTLQSGVPSRFSGSGSRTDFTLTISSLQPEDFATYYCQQSVSVPYTFGQGTKLEIK is 3100

Ref: patent US20140271653A1
